- System: CD2F1 mice, L1210 leukemia ip, survival T/C
- protocol-details: NCI In Vivo Anticancer Drug Screen. Data for tumor model L1210 Leukemia (intraperitoneal) in CD2F1 (CDF1) mice
- test-settings: endpoint: mean survival time; dose: 200.0 mg/kg/injection; schedule: Q04DX003 (ip); vehicle: saline with Tween-80; higher = longer survival
Toxic doses and inconclusive results are not listed.
test-readout: T/C

Some solved cases for reference:
• O=CC1C2C=CCC12 (stereo not drawn) = 95 % of control
• CCCCC(O)CCCCCCCCCC(=O)O (stereo not drawn) = 101 % of control
• Cc1ccc(S(=O)(=O)Nc2cccc3c(NS(=O)(=O)c4ccc(C)cc4)cccc23)cc1 = 100 % of control
• O=C(O)/C=C/C(=O)Nc1ccc(N=Nc2ccccc2)cc1 = 98 % of control
• F[Si](c1ccc(Br)cc1)(c1ccc(Br)cc1)c1ccc(Br)cc1 = 93 % of control
• O=C1CCc2c(Br)cccc21 = 100 % of control
• CCCCCCCCCCCCCCCC(=O)NCCOC(C)=O = 95 % of control

Please look at this molecule and report its T/C: CC(C)(C)C1CCC(OC(=O)c2ccccc2C(=O)O)CC1 (stereo not drawn) 98 % of control

----------
- System: CD2F1 mice, L1210 leukemia ip, survival T/C
- protocol-details: NCI In Vivo Anticancer Drug Screen. Data for tumor model L1210 Leukemia (intraperitoneal) in CD2F1 (CDF1) mice
- test-settings: endpoint: mean survival time; dose: 200.0 mg/kg/injection; schedule: Q04DX003 (ip); vehicle: Klucel (hydroxypropylcellulose) (HPC); higher = longer survival
Inconclusive results and toxic doses are left out.
test-readout: T/C

Worked cases, answers included:
* CCCCCC1C(O)C(=O)OC1(C(F)(F)F)C(F)(F)F (configuration not stated) | 94 % of control
* O=C(O)CC1(Br)C(=O)Nc2ccccc21 (configuration not stated) | 102 % of control

Entry O=C(O/N=C(\CN1CCOCC1)c1ccc(Cl)cc1)c1ccccc1 needs its T/C filled in; supply it. 90 % of control

Specify reported T/C for the molecule shown: CCCN(CCC)c1ccc(C#N)cc1 92 % of control

Return T/C for the following molecule: O=C1c2ccccc2C(=O)C1(Cl)C(Cl)c1ccc([N+](=O)[O-])cc1 (configuration not stated) 106 % of control

State, in one line, measured T/C of Cc1ccc2c(c1)Sc1ccc3ccccc3c1N2 95 % of control

Retrieve T/C measured for C(=N\Nc1ccccc1)/c1ccccc1 and print it. 98 % of control

----------
// T/C lookup, one value per entry
- Test system: CD2F1 mice, L1210 leukemia ip, survival T/C
- protocol-details: NCI In Vivo Anticancer Drug Screen. Data for tumor model L1210 Leukemia (intraperitoneal) in CD2F1 (CDF1) mice
- test-settings: endpoint: mean survival time; dose: 100.0 mg/kg/injection; schedule: Q04DX003 (ip); vehicle: saline with Tween-80; higher = longer survival
Inconclusive results and toxic doses are left out.

Illustrative cases are given below, each with its answer.
• Fc1c(F)c(N(c2ccccc2)c2ccccc2)c(F)c(F)c1N(c1ccccc1)c1ccccc1 = 95 % of control
• CCOP(=S)(OCC)Oc1cccc(NC(=O)N(C)C)c1 = 96 % of control
• CCCCCCCCCCCCNC(=O)c1cc[n+](Cc2ccc(Cl)c(Cl)c2)cc1 = 103 % of control
• CC(=O)OC(N=Nc1ccccc1)(c1ccccc1)c1ccccc1 = 98 % of control

Specify measured T/C for CN(C)c1ccc(/C=C(\C#N)c2ccc(Cl)cc2)c(Cl)c1 . 86 % of control

State, in one line, measured T/C of CC1(C)C2CCC1(C(=O)O)C(=O)C2 (stereo unspecified) 92 % of control

----------
- Test system: CD2F1 mice, L1210 leukemia ip, survival T/C
- protocol-details: NCI In Vivo Anticancer Drug Screen. Data for tumor model L1210 Leukemia (intraperitoneal) in CD2F1 (CDF1) mice
- test-settings: endpoint: mean survival time; dose: 400.0 mg/kg/injection; schedule: Q04DX003 (ip); vehicle: other; higher = longer survival
Toxic doses and inconclusive results are not listed.
test-readout: T/C

Here's what some known entries look like.
• CCC(CC)C(O)CC(O)CC(C)C (centres undefined) = 94 % of control
• CCCCCCCCCC(=O)CCCCCCC = 107 % of control
• O=[N+]([O-])c1ccc(N=Cc2ccc3c(c2)OCO3)c(Br)c1 = 103 % of control

Now for the compound whose T/C we want.
// fetch T/C given entry O=C(O)CCCc1ccc(Oc2ccccc2)cc1 95 % of control

----------
- System: CD2F1 mice, L1210 leukemia ip, survival T/C
- protocol-details: NCI In Vivo Anticancer Drug Screen. Data for tumor model L1210 Leukemia (intraperitoneal) in CD2F1 (CDF1) mice
- test-settings: endpoint: mean survival time; dose: 200.0 mg/kg/injection; schedule: Q01DX001 (ip); vehicle: saline with Tween-80; higher = longer survival
- Protocol: The antitumor activity of compounds was measured in mice bearing transplantable tumors. Survival or tumor size were measured and the results are expressed as the measurement made in the treated group (T) divided by the measurement made in the vehicle treated control group (C). The tumor model used in this assay is L1210 Leukemia (intraperitoneal) in CD2F1 (CDF1) mice
Inconclusive results and toxic doses are left out.
test-readout: T/C

* CCOC(=O)N/N=C/c1cc(Cl)cc(Cl)c1O | 90 % of control

Please give measured T/C of the following entry: Cc1ccc(C)c(NC(=O)Oc2ccc(F)cc2)c1 86 % of control

Note T/C for the molecule shown: CC(C)(SCC(N)C(=O)O)c1ccc(-c2ccccc2)cc1 (stereo unspecified) 86 % of control

Report T/C, nothing else, for this molecule: CN1COc2cc3c(cc2C1)OCN(C)C3 100 % of control

----------
- Test system: CD2F1 mice, L1210 leukemia ip, survival T/C
- protocol-details: NCI In Vivo Anticancer Drug Screen. Data for tumor model L1210 Leukemia (intraperitoneal) in CD2F1 (CDF1) mice
- test-settings: endpoint: mean survival time; dose: 100.0 mg/kg/injection; schedule: Q04DX002 (ip); vehicle: Klucel (hydroxypropylcellulose) (HPC); higher = longer survival
Toxic doses and inconclusive results are not listed.
test-readout: T/C

• CCCCCCCCCCCCSC#N = 101 % of control
• S=C(Oc1ccc(Cl)cc1)Sc1ccc(Cl)cc1 = 101 % of control
• c1ccc(-c2nc(/N=N/c3nc(-c4ccccc4)c(-c4ccccc4)[nH]3)[nH]c2-c2ccccc2)cc1 = 96 % of control
• O=C1OC2(c3ccc(Cl)cc3Oc3cc(Cl)ccc32)c2ccccc21 = 101 % of control

Now look at this one.
Supply measured T/C of COC(=S)C(c1ccccc1)(c1ccccc1)c1ccccc1 in your reply. 93 % of control

----------
- Test system: CD2F1 mice, L1210 leukemia ip, survival T/C
- protocol-details: NCI In Vivo Anticancer Drug Screen. Data for tumor model L1210 Leukemia (intraperitoneal) in CD2F1 (CDF1) mice
- test-settings: endpoint: mean survival time; dose: 50.0 mg/kg/injection; schedule: Q01DX005 (ip); vehicle: other; higher = longer survival
Toxic doses and inconclusive results are not listed.
test-readout: T/C

• CCCCCCC[CH2][Sn]1([CH2]CCCCCCC)[O]CC2OC(n3cc(C)c(=O)[nH]c3=O)CC2[O]1 (centres undefined) = 114 % of control

// Input: Cc1c(C(=O)O)nc(/C=C/C(Cl)(Cl)Cl)[nH]c1=O . Output its T/C only. 103 % of control

Kindly indicate its recorded T/C. Item: CCCCCC(=O)NNc1nc(N)nc2nonc12 97 % of control

Give the reported value of T/C for this record: CCCc1nc2[nH]cnc(=S)c2[nH]1 96 % of control

----------
- Tested on: CD2F1 mice, L1210 leukemia ip, survival T/C
- protocol-details: NCI In Vivo Anticancer Drug Screen. Data for tumor model L1210 Leukemia (intraperitoneal) in CD2F1 (CDF1) mice
- test-settings: endpoint: mean survival time; dose: 100.0 mg/kg/injection; schedule: Q04DX003 (ip); vehicle: saline
Inconclusive results and toxic doses are left out. Rule for the calls: active = survival T/C of 150% or more; inactive = T/C below 125% in these data.
Lab note: assign the record to one of active, inactive

Recorded results for 8 molecules are shown here.
• CC1(O)CC2CCC1C2 (configuration not stated) = inactive
• CN(C)CCCNCCCCNCCCN(C)C = inactive
• O=C(O)CCCOc1ccc(Cl)cc1Cl = inactive
• NC(=O)CCC(NC(=O)c1cnc2ccccc2n1)C(=O)O (configuration not stated) = inactive
• O=S(=O)(Cl)c1ccc(F)cc1 = inactive
• CC(=O)NC(C=O)CC(C=O)CO (configuration not stated) = inactive
• CCOC(=O)C(C)C(=O)O (configuration not stated) = inactive
• NC/C(=N\Nc1ccc([N+](=O)[O-])cc1[N+](=O)[O-])c1ccccc1 = inactive

Called result for CCCCCCC(C)c1cc(C)c(O)c(CN(C)C)c1 (configuration not stated) inactive

Please state the recorded outcome for this molecule: C[n+]1csc(=S)[nH]1 inactive

// return assay outcome for O=C(O)C1C2CC3OC(=O)C1C3C2 (configuration not stated) inactive

// param item: CCNc1nc(NC(C)C)nc(SC)n1 ; yields the recorded call inactive
